molecular target: Peregrin (Homo sapiens) (UniProt P55201); settings: Compound concentration 20.0 uM
Mark label 1 for ΔTm under 0.6 °C, label 0 if at or over.

given_smiles | discrete_label
O=C(O)[C@@H]1CCCN(C(=O)n2cnc(-c3ccc(-c4cnc(N5CCOCC5)nc4)cc3)n2)[C@H]1c1ccccc1 | label 1
CNc1ncc2cc(-c3cc(NC(=O)NCCC(C)(C)C)c(F)cc3C)c(C)nc2n1 | label 1
CS(=O)(=O)N1CCN(C(=O)c2cnc3ccc(F)cc3c2N2CCC(C#N)(c3ccccc3)CC2)CC1 | label 0

Input: Strictly below 0.6 °C: is that where ΔTm of `CC/C(=C(/CC)c1ccc(O)cc1)c1ccc(O)cc1` sits?
Output: label 1

Input: Also check `Nc1cccc(Nc2ncc(-c3ccc(Cl)cc3)o2)c1`
Output: label 0

Input: Also check `O=c1[nH]c(Oc2cnn(Cc3ccccc3)c2)nc2cnccc12`
Output: label 0

Input: Also check `CC(C)C[C@@H](C=O)NC(=O)[C@@H](NS(=O)(=O)c1ccc(F)cc1)C(C)C`
Output: label 1

Input: Also check `CCCCCCNC(=O)n1cc(Cl)c(=O)n(C(=O)OCC(C)C)c1=O`
Output: label 0

---

target: Fibroblast growth factor receptor 2 (Homo sapiens); conditions: Compound concentration 20.0 uM
Description: Thermal Shift Assay. Domain: start/stop: T457-E768
Residues, ends and D or L forms follow the SMILES beside them. *: point of attachment. Cbz = O=C(OCc1ccccc1)*; CH2F = FC*
Each entry below lists one item and its recorded ΔTm value.
Give a bare numeral; the unit °C is implied.

Below, each entry is followed by its recorded ΔTm result.
compound | ΔTm [°C]
CN1CCN2c3c(cccc31)[C@@H]1CN(CCCC(=O)c3ccc(F)cc3)CC[C@@H]12 | -0.37
O=C(NCCCOc1ccc2[nH]c(=O)ccc2c1)N(C1CC1)[C@@H]1CCCC[C@H]1O | 0.24
CC(=O)C(=Cc1cc(O)c(O)c([N+](=O)[O-])c1)C(C)=O | -0.23
CC(C)(C)NS(=O)(=O)c1cccc2c(NC(=O)[C@H](Cc3ccccc3)NC(=O)C3CCCCC3)cccc12 | 0.01
Cc1cc(C(=O)N2CCN(C3CN(C(=O)c4ccc(-c5ccccc5)cc4)C3)CC2)no1 | 1.38

Input: Entry under review: COC(=O)CC[C@H](NC(=O)[C@H](Cc1c[nH]c2ccccc12)NC(=O)OCc1ccccc1)C(=O)N[C@@H](Cc1cnc[nH]1)C(=O)N[C@@H](CC(=O)OC)C(=O)CF (Cbz-WE(OMe)HD(OMe)-CH2F) . Reported ΔTm?
Output: 0.1

Input: Also check `O=C(Nc1cc(C(F)F)ns1)Nc1cc(F)ncc1CO`
Output: -0.3

Input: Also check `CN1CCN(c2cc(C(=O)Nc3ncc(SCc4cccc(C(F)(F)F)c4)s3)ccn2)CC1`
Output: 0.89

Input: Also check `Cc1nc(N)c2nnn(C[C@H]3CN(Cc4nccs4)CCO3)c2n1`
Output: -0.39

---

target: Fibroblast growth factor receptor 2 (Homo sapiens) (UniProt P21802); conditions: Compound concentration 20.0 uM
Sequence (P21802 22-821 limits assumed): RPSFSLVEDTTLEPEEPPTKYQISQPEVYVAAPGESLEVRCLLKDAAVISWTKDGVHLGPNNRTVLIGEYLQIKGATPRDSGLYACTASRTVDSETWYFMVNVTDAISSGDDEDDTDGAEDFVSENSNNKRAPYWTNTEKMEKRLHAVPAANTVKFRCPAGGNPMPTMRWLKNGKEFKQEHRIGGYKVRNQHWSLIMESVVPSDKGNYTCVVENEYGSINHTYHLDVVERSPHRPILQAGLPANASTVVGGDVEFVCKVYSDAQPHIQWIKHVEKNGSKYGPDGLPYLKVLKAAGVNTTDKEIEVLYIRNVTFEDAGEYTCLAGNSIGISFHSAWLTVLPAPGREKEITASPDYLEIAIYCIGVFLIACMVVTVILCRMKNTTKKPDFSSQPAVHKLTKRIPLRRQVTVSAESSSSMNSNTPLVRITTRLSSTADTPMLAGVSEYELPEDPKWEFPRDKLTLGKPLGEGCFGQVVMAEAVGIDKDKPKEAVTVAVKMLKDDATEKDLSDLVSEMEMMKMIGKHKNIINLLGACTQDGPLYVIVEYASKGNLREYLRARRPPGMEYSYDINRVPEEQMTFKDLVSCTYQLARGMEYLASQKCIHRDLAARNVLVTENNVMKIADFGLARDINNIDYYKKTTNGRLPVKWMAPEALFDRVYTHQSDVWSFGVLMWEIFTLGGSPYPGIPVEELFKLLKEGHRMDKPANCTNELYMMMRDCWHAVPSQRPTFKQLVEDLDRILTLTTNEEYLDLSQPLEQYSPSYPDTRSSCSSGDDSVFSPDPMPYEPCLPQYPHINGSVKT
Each entry below lists one item and its recorded ΔTm value.
Give a bare numeral; the unit °C is implied.

Below, each entry is followed by its recorded ΔTm result.
given_smiles | u | test_result
Cc1cc(C(=O)CN2CCCCC2)c(C)n1-c1ccc(Cl)cc1 | °C | -0.09
CCC(=O)N1CCOc2c(cc(-c3cc(OC)cc(OC)c3)cc2C(=O)N[C@H]2CCCN(C)C2)C1 | °C | 0.29
Cc1ccc(NC2=CC(=O)c3sc(C)nc3C2=O)cc1 | °C | -0.13

Input: Entry under review: `Cc1noc(C)c1-c1cc(Cl)c(Nc2ccccc2C(=O)O)c(Cl)c1` . Reported ΔTm?
Output: 0.17

Input: Also check `Cc1cc(-c2ccccc2)cc(C(=O)NNS(=O)(=O)c2ccccc2)c1F`
Output: 0

Input: Also check `NC(=S)c1cccc(-c2cn(C3CCN(S(=O)(=O)C(F)(F)F)CC3)c3cc(CNC(=O)C4CNC4)ccc23)c1`
Output: 0.25

Input: Also check `CC(C)Cn1c(=O)n(C)c(=O)c2c(C(=O)N3CC[C@@H](O)C3)c(Cc3ccnc4ccccc34)sc21`
Output: 0.61

Input: Also check `N#C[C@@H]1CCCN1C(=O)CNC(=O)c1ccnc2ccc(OCCCN3CCN(C(=O)CN4CCN(CC(=O)O)CCN(CC(=O)O)CCN(CC(=O)O)CC4)CC3)cc12`
Output: 0.18

Input: Also check `O=C(NCCc1cc(C(=O)NO)no1)c1ccc(Cl)c(Cl)c1`
Output: 0.8

---

target: Fibroblast growth factor receptor 2 (Homo sapiens) (UniProt P21802); settings: Compound concentration 20.0 uM
Binning rule for recorded ΔTm: low (below -0.3 °C), medium (-0.3 °C to below 0.4 °C), high (0.4 °C or more)

compound | discrete_label
CCCOC(=O)N1CCN(C(=O)c2ccc3c(Cl)cc(-c4ccc(C5(N)CC5)cc4)nc3c2)C[C@H]1C | low
CN1[C@@H]2CC[C@H]1C[C@@H](OC(c1ccc(F)cc1)c1ccc(F)cc1)C2 | low
O=C(Cc1ccccc1)c1cc(O)c(O)c([N+](=O)[O-])c1 | high

Input: Into which category would you place `C=CC(=O)Nc1cccc(-c2c[nH]cc2CN(C)CCN)c1` ?
Output: medium

---

target: Peregrin (Homo sapiens) (UniProt P55201); settings: Compound concentration 20.0 uM
Residues, ends and D or L forms follow the SMILES beside them.
Give Yes when the value for ΔTm is at least 0.2 °C. Give No when it is less.

Completed entries (count: 3):
compound | discrete_label
O=C1Nc2ccccc2C2(CCN(CC(Cc3ccccc3)Nc3nc4ccc(F)cc4s3)CC2)N1 (stereo not given) | Yes
CN(C)NC(=O)CCC(=O)O | Yes
CC[C@H](C)[C@H](NC(=O)[C@H](CCC(=O)O)NC(=O)[C@@H](NC(C)=O)C(C)C)C(=O)N[C@H](C=O)CC(=O)O (Ac-VEID-aldehyde) | No

Input: Textbook exercise: given the entry `CCNC(=O)NCCSC[C@H]1O[C@@H](n2cnc3c(N)ncnc32)[C@H](O)[C@@H]1O` , state whether its ΔTm is greater than or equal to 0.2 °C.
Output: No

Input: Also check `N[C@](CCCCB(O)O)(CCN1CCCCC1)C(=O)O`
Output: Yes

---

Target: Peregrin (Homo sapiens)
Sequence (whole entry): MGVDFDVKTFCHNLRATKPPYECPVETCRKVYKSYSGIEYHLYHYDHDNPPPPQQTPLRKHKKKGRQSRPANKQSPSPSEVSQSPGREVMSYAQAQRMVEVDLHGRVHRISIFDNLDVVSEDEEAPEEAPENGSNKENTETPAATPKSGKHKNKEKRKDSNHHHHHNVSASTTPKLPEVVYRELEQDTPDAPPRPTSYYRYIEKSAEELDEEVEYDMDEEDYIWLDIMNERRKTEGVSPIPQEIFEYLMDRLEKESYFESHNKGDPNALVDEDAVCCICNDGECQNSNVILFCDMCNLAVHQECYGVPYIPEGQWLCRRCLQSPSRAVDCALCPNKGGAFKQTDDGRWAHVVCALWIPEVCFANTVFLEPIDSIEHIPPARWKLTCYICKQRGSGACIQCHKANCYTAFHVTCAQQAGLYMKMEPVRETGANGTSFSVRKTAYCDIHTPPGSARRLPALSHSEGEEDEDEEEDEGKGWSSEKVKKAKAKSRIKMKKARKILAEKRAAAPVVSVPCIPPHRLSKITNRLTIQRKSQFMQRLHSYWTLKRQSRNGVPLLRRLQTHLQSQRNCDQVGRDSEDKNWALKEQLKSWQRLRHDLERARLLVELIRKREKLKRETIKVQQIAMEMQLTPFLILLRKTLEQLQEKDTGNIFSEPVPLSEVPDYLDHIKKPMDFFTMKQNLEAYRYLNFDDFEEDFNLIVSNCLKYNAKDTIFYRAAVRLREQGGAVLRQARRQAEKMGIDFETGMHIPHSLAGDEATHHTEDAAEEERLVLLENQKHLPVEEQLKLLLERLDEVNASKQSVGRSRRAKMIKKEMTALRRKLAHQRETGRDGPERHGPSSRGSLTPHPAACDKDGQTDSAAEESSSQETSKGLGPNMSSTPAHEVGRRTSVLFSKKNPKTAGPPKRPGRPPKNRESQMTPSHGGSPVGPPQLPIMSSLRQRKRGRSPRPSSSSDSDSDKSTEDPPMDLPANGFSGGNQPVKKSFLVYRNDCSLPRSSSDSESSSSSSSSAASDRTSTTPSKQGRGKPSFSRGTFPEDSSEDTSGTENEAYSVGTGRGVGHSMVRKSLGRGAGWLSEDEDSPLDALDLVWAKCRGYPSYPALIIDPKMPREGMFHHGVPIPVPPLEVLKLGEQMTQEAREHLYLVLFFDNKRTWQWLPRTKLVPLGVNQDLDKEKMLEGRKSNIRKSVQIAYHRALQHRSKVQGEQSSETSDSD
Conditions: Compound concentration 20.0 uM
Give criterion met when the value for ΔTm is at least 2 °C. Give criterion not met when it is less.

Completed entries (count: 6):
compound | discrete_label
Cc1cc(/N=N/c2ccc(S(=O)(=O)NC3CCCC3)cc2)c(N)cc1O | criterion met
Cc1ccnc(NS(=O)(=O)c2ccc(NC(=O)Nc3ccc(S(=O)(=O)Nc4nccc(C)n4)cc3)cc2)n1 | criterion not met
NCCOCCOCCNC(=O)Cc1ccc(Nc2nc(NCc3ccc(F)cc3)nc(NCC3CCCCC3)n2)cc1 | criterion met
N#Cc1cc(F)cc(Oc2ccc3c(c2C(F)F)[C@@H](O)C(F)(F)S3(=O)=O)c1 | criterion met
CCC(CC)(NC(=O)C(C)C)C(=O)N[C@@H](CCCNC(=N)N)C(=O)NC1(C(=O)NC(c2ccc(F)cc2)c2ccc(F)cc2)CCCC1 | criterion not met
NCCCOc1cc2ccccc2cc1C(=O)NCCOc1cc2ccccc2cc1C(=O)Nc1ccc(Cl)cc1O | criterion not met

Input: Textbook exercise: given the entry O=C(NO)C(c1ccc(-c2ncc(C(F)(F)F)cn2)cc1)c1ccccc1F (configuration not stated) , state whether its ΔTm is greater than or equal to 2 °C.
Output: criterion not met
